- Test system: SNB-19 CNS
- MEASUREMENT DESCRIPTION: NCI tumour cell line growth inhibition, 48 h
MEASUREMENT TYPE: TGI

Solved cases (6 shown):
molecule="Nc1nc(N)c2c(n1)NC(c1sc(Cl)nc1Cl)CC(c1ccc3c(c1)OCO3)=N2 (stereo not drawn)" measurement_type=TGI value_reported="48.2 µM"
molecule=NC(=O)Oc1ccccc1 measurement_type=TGI value_reported="> 100 µM"
molecule="Cc1cc(=O)oc2c(CNC(CC(C)C)C(=O)O)c(O)ccc12 (stereo not drawn)" measurement_type=TGI value_reported="> 100 µM"
molecule="CNC(c1ccncc1)C(NC)c1ccncc1 (stereo not drawn)" measurement_type=TGI value_reported="> 100 µM"
molecule="Cc1ccc(/C=C2\\N=C(N3CCCC(CO)C3)NC2=O)cc1 (stereo not drawn)" measurement_type=TGI value_reported="> 100 µM"
molecule=O=S(=O)(O)c1cc(S(=O)(=O)O)c2c(N=Nc3ccc(N=Nc4ccccc4)cc3)c(O)ccc2c1 measurement_type=TGI value_reported="> 100 µM"

Q: Which value of TGI has been reported for COc1ccc(C2=NC(c3ccc(Cl)cc3)C(c3ccc(Cl)cc3)N2C(=O)N2CCNC(=O)C2)c(OC(C)C)c1 (stereo not drawn) in the records?
A: 4.91 µM

Q: Fill in the blank: the reported TGI of CN1CCN(c2ccc3nc(-c4ccc(OCCCCN5CCN(CCCCN6C(=O)c7cccc8cccc(c78)C6=O)CC5)cc4)[nH]c3c2)CC1 is ____.
A: > 100 µM

Q: What measured TGI goes with C=CCNC(=S)/N=C/C(C(=O)Nc1ccccc1C)=C(\C)O ?
A: > 100 µM

Q: Fill in: TGI of CC(=O)OCC1OC(n2c(-c3ccccc3)c(N=Nc3ccc(C)cc3)c(C)c(C#N)c2=S)C(OC(C)=O)C(OC(C)=O)C1OC(C)=O (stereo not drawn) is ___
A: 54.5 µM

Q: Requested field: TGI. Item: O=C(NOCCO)c1cc(CN2OCCCC2=O)c(F)c(F)c1Nc1ccc(I)cc1F
A: > 100 µM
